Attribute: pIC50
Molecular target: human orexin-2 receptor (Homo sapiens)
Construct: expressed in transfected cells; host or cells: CHO (Chinese hamster ovary) cells, kept under G418 selection
Test: Intracellular calcium measurement (FLIPR Tetra), orexin receptor antagonistic activity, OX2
Type: cell-based
Conditions: CHO cells expressing human orexin-2 receptor, 3 nM orexin-A, conditions B, normalized (*) using IC50 of on-plate reference compound
Here pIC50 is given on a logarithmic scale as minus log10 of the concentration in mol/L.

Known results for compounds:
Form: compound = COc1ccc(-c2sc(C)nc2C(=O)N(CCc2c[nH]c3cc4c(cc23)OCO4)CC2CC2)cn1 ; pIC50 = 7.92

Form: compound = COc1ccc(-c2sc(C)nc2C(=O)N(CCc2c[nH]c3ccc(F)cc23)CC(=O)N(C)C)cn1 ; pIC50 = 6.26

Further cases:
Form: compound = Cc1cccc2c(CCN(CC3CC3)C(=O)c3nccnc3-c3cncnc3)c[nH]c12 ; pIC50 = 7.30

Form: compound = CSc1cncc(-c2sc(C)nc2C(=O)N(CCc2c[nH]c3ccc(F)cc23)CC2CC2)c1 ; pIC50 = 7.33

---

Target: human orexin-1 receptor (Homo sapiens, UniProt O43613)
Construct: expressed in transfected cells; host or cells: CHO (Chinese hamster ovary) cells, kept under G418 selection
Sequence (O43613 whole entry): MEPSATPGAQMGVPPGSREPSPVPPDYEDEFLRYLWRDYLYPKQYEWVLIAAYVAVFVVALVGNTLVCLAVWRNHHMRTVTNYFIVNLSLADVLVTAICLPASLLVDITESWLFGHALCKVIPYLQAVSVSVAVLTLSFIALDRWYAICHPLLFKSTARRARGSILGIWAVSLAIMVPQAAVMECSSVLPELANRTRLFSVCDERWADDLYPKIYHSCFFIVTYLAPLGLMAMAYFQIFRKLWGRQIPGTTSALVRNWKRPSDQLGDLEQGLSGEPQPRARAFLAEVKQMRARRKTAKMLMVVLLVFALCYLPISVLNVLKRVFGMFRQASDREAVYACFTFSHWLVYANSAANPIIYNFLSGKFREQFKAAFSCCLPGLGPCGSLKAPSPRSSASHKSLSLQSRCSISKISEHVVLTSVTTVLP
Assay: Intracellular calcium measurement (FLIPR Tetra), orexin receptor antagonistic activity, OX1
Type: cell-based
Conditions: CHO cells expressing human orexin-1 receptor, 3 nM orexin-A, conditions B, normalized (*) using IC50 of on-plate reference compound
Measured Endpoint: pIC50
Here pIC50 is given on a logarithmic scale as minus log10 of the concentration in mol/L.

Hey, human orexin-1 receptor (Homo sapiens, UniProt O43613) data for COc1ccc(-c2cccnc2C(=O)N(CCc2c[nH]c3cc(F)ccc23)CC2CC2)cn1 : pIC50 came out at 7.46

Further cases:
Hey, human orexin-1 receptor (Homo sapiens, UniProt O43613) data for Cc1cccc(-c2sc(CN)nc2C(=O)N(CCc2c[nH]c3ccc(F)cc23)CC2CC2)c1 : pIC50 came out at 6.55

Hey, human orexin-1 receptor (Homo sapiens, UniProt O43613) data for COC(=O)CN(CCc1c[nH]c2ccc(F)cc12)C(=O)c1ncccc1-c1ccc(OC)nc1 : pIC50 came out at 6.07

Hey, human orexin-1 receptor (Homo sapiens, UniProt O43613) data for CCCN(CCc1c[nH]c2ccc(F)cc12)C(=O)c1ncccc1-c1ccc(OC)nc1 : pIC50 came out at 6.83

Hey, human orexin-1 receptor (Homo sapiens, UniProt O43613) data for CN(C)c1nc(C(=O)N(CCc2c[nH]c3cc(F)c(Cl)cc23)CC2CC2)c(-c2ccccc2)s1 : pIC50 came out at 7.55

Hey, human orexin-1 receptor (Homo sapiens, UniProt O43613) data for O=C(c1cncnc1-c1ccccc1)N(CCc1c[nH]c2ccccc12)CC1CC1 : pIC50 came out at 6.64

Hey, human orexin-1 receptor (Homo sapiens, UniProt O43613) data for COc1ccc(-c2cccnc2C(=O)N(CCc2cn(C)c3ccccc23)CC2CC2)cn1 : pIC50 came out at 7.70

Hey, human orexin-1 receptor (Homo sapiens, UniProt O43613) data for COc1ccc(-c2sc(C)nc2C(=O)N(CCc2c[nH]c3ccc(F)cc23)CC2CC2)cn1 : pIC50 came out at 7.47

---

Molecular target: human orexin-1 receptor (Homo sapiens)
Construct: expressed in transfected cells; host or cells: CHO (Chinese hamster ovary) cells, kept under G418 selection
Experiment: Intracellular calcium measurement (FLIPR Tetra), orexin receptor antagonistic activity, OX1
Format: cell-based
Settings: CHO cells expressing human orexin-1 receptor, 3 nM orexin-A, conditions B
Attribute: IC50
Expressed in nM, but write only the number.

Form: compound = COc1ccc(CCN(C(=O)c2nc(N)sc2-c2cccc(C)c2)C2CC2)cc1OC ; IC50 = 15

Form: compound = COc1ccc2c(CCN(CC3CC3)C(=O)c3nc(N)sc3-c3cccc(C)c3)c[nH]c2c1 ; IC50 = 7

Form: compound = COCCN(CCc1ccc(OC)c(OC)c1)C(=O)c1nc(C)sc1-c1cccc(F)c1 ; IC50 = 1120

---

Molecular target: human orexin-1 receptor (Homo sapiens, UniProt O43613)
Construct: expressed in transfected cells; host or cells: CHO (Chinese hamster ovary) cells, kept under G418 selection
Test: Intracellular calcium measurement (FLIPR Tetra), orexin receptor antagonistic activity, OX1
Assay type: cell-based
Conditions: CHO cells expressing human orexin-1 receptor, 3 nM orexin-A, conditions B, normalized (*) using IC50 of on-plate reference compound
Response field class: enum, chosen by comparing IC50 against bin A: < 200 nM; bin B: ≥ 200 nM and < 800 nM; bin C: ≥ 800 nM

Illustrative cases are given below, each with its answer.
Query: Place this compound in its band: Cc1nc(-c2ccc(Cl)cc2)c(C(=O)N(CCc2c[nH]c3ccc(F)cc23)CC2CC2)s1 [Example 262]
Result: bin C

Query: Place this compound in its band: COc1ccc2[nH]cc(CC(C)N(CC3CC3)C(=O)c3nc(C)sc3-c3ccc(OC)nc3)c2c1 (racemic) [Example 385]
Result: bin A

Turning now to a further compound:
Query: Place this compound in its band: CNc1nc(C(=O)N(CCc2c[nH]c3ccc(F)cc23)CC2CC2)c(-c2cccc(C)c2)s1 [Example 435]
Result: bin A

---

Biological target: human orexin-2 receptor (Homo sapiens)
Construct: expressed in transfected cells; host or cells: CHO (Chinese hamster ovary) cells, kept under G418 selection
Sequence (O43614 1-444): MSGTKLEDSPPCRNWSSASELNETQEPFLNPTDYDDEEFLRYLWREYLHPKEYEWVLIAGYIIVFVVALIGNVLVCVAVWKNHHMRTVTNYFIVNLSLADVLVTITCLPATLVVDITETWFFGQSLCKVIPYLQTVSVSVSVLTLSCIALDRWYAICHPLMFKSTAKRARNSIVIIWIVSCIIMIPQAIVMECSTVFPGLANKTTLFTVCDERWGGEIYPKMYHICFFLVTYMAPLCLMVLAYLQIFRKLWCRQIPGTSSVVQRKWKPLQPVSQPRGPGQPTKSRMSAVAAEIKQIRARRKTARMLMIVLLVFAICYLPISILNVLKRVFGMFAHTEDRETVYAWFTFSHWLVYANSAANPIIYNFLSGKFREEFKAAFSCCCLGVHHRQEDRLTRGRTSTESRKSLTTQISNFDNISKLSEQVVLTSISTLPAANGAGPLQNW
Assay: Intracellular calcium measurement (FLIPR Tetra), orexin receptor antagonistic activity, OX2
Type: cell-based
Details: CHO cells expressing human orexin-2 receptor, 3 nM orexin-A, conditions B
Attribute: IC50
Expressed in nM, but write only the number.

Form: molecule = COc1ccc(CCN(CC2CC2)C(=O)c2nc(N)sc2-c2cccc(C)c2)cc1SC ; IC50 = 6

Further cases:
Form: molecule = Cc1cccc(-c2sc(N)nc2C(=O)N(CCc2c[nH]c3ccc(Br)cc23)CC2CC2)c1 ; IC50 = 135

Form: molecule = COc1ccc(CCN(CC(N)=O)C(=O)c2nc(C)sc2-c2cccc(F)c2)cc1OC ; IC50 = 49

Form: molecule = Cc1cccc(-c2sc(N)nc2C(=O)N(CCc2csc(N)n2)CC2CC2)c1 ; IC50 = 954

---

Attribute: IC50
Molecular target: human orexin-1 receptor (Homo sapiens)
Construct: expressed in transfected cells; host or cells: CHO (Chinese hamster ovary) cells, kept under G418 selection
Assay: Intracellular calcium measurement (FLIPR Tetra), orexin receptor antagonistic activity, OX1
Assay type: cell-based
Details: CHO cells expressing human orexin-1 receptor, 3 nM orexin-A, conditions B, normalized (*) using IC50 of on-plate reference compound
Expressed in nM, but write only the number.

Hey, human orexin-1 receptor (Homo sapiens) data for CCN(C)c1nc(C(=O)N(CCc2c[nH]c3ccccc23)CC2CC2)c(-c2ccccc2F)s1 [Example 500] : IC50 came out at 257

Further cases:
Hey, human orexin-1 receptor (Homo sapiens) data for COc1ccc(-c2nccnc2C(=O)N(CCc2c[nH]c3c(C)cccc23)CC2CC2)cc1 [Example 436] : IC50 came out at 24

Hey, human orexin-1 receptor (Homo sapiens) data for Cc1nc(C(=O)N(CCc2c[nH]c3ccc(F)cc23)CC2CC2)c(-c2cnc3ccccc3c2)s1 [Example 428] : IC50 came out at 83

Hey, human orexin-1 receptor (Homo sapiens) data for Cc1ccc(-c2nccnc2C(=O)N(CCc2c[nH]c3ccc(F)cc23)CC(N)=O)cc1C [Example 294] : IC50 came out at 3820

Hey, human orexin-1 receptor (Homo sapiens) data for COc1ccc2[nH]cc(CCN(CC3CC3)C(=O)c3nccnc3-c3ccccc3)c2c1 [Example 322] : IC50 came out at 190

Hey, human orexin-1 receptor (Homo sapiens) data for Cc1nc(C(=O)N(CCc2c[nH]c3ccc(F)cc23)CC2CC2)c(-c2ccc(F)c(CO)c2)s1 [Example 418] : IC50 came out at 148

Hey, human orexin-1 receptor (Homo sapiens) data for Cc1nc(C(=O)N(CCc2c[nH]c3ccc(F)cc23)CC2CC2)c(-c2ccc3cc[nH]c3c2)s1 [Example 430] : IC50 came out at 104

Hey, human orexin-1 receptor (Homo sapiens) data for Cc1ccc(-c2nccnc2C(=O)N(CCc2cn(C)c3ccccc23)CC2CC2)cc1C [Example 330] : IC50 came out at 18

Hey, human orexin-1 receptor (Homo sapiens) data for Cc1cncc(-c2cccnc2C(=O)N(CCc2c[nH]c3ccc(F)cc23)CC2CC2)c1 [Example 402] : IC50 came out at 700

Hey, human orexin-1 receptor (Homo sapiens) data for COc1ccc(-c2sc(C)nc2C(=O)N(CCc2c[nH]c3ccc(F)cc23)CC2CC2)cc1C [Example 410] : IC50 came out at 3650

Hey, human orexin-1 receptor (Homo sapiens) data for CC(C)N(CCc1c[nH]c2ccc(F)cc12)C(=O)c1nccnc1-c1ccccc1 [Example 287] : IC50 came out at 2440

Hey, human orexin-1 receptor (Homo sapiens) data for Cc1ccc(-c2nccnc2C(=O)N(CCc2c[nH]c3ccc(F)cc23)CC(F)F)cc1C [Example 297] : IC50 came out at 702

Hey, human orexin-1 receptor (Homo sapiens) data for COc1ccc(-c2sc(C)nc2C(=O)N(CCc2c[nH]c3ccc(F)cc23)CC(=O)N(C)C)cn1 [Example 303] : IC50 came out at 2350

Hey, human orexin-1 receptor (Homo sapiens) data for Cc1cccc2c(CCN(CC3CC3)C(=O)c3nccnc3-c3ccccc3)c[nH]c12 [Example 326] : IC50 came out at 76

Hey, human orexin-1 receptor (Homo sapiens) data for COc1nccc(-c2sc(C)nc2C(=O)N(CCc2c[nH]c3ccc(F)cc23)CC2CC2)c1Cl [Example 420] : IC50 came out at 373

Hey, human orexin-1 receptor (Homo sapiens) data for COc1ccc(-c2sc(C)nc2C(=O)N(CCc2c[nH]c3ccc(F)cc23)CC(F)F)cn1 [Example 307] : IC50 came out at 345

Data credit: patent US20110212968A1
